Entries with reported Kd on PIK3CD

molecule	Kd (nM)
Cc1cn2c(=O)cc(N3CCOCC3)nc2n1Cc1cccc(Cl)c1Cl	120
Cc1c(Cn2c(C)nn3c(=O)cc(N4CCOC(C)C4)nc23)cccc1C(F)(F)F (centres unmarked)	80

====

# Tested on: LZK;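 further: KINOMEscan kinase panel screen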
# Construct: gene MAP3K13
# measurement-conditions: concentration: 1 μM, replicates: in singlicate; n = 1
metric-name: %Inh (%)

compound	target-entity	experimental-result
Cc1ccc(NC(=O)c2ccnc(N3CCN(C)CC3)c2)cc1-c1ccc(C(=O)NCC2CC2)cc1	LZK	0
Cn1cc(-c2ccc3c(c2)CCN3C(=O)Cc2ccccc2Cl)c2c(N)ncnc21	LZK	0
Cc1nnc(-c2ccc(C)c(-c3ccc(C(=O)Nc4ccc(NS(C)(=O)=O)cc4)cc3)c2)o1	LZK	21
O=c1cc(N2CCOCC2)nc2n(Cc3cccc(F)c3)ccn12	LZK	0
CCc1ccnc(/C=C/c2n[nH]c3cc(Sc4ccccc4C(=O)NC)ccc23)c1	LZK	17
CN(C1=C(c2ccccc2)C(=O)NC1=O)c1ccccc1	LZK	0
CCn1cnc2c(N)ncnc21	LZK	3
O=C(NCCNc1ccnc(Nc2ccc(F)cc2)n1)Nc1ccccc1F	LZK	0
O=C(Nc1cccc(-c2nn3ncccc3c2-c2ccnc(Nc3cccc(C(F)(F)F)c3)n2)c1)c1c(F)cccc1F	LZK	12
NCC(NC(=O)c1cc(-c2cn[nH]c2)c(-c2ccnc3[nH]ccc23)s1)c1ccccc1.O=C(O)C(F)(F)F.O=C(O)C(F)(F)F (stereo not drawn)	LZK	0
COc1ccc(S(=O)(=O)NC2CCN(c3cc(C)nc(Nc4cccc(C#N)c4)n3)CC2)cc1.O=C(O)C(F)(F)F	LZK	26
COc1ccc(Nc2ncc(C#N)c(Nc3ccccc3C(N)=O)n2)cc1N1CCN(C)CC1.Cl	LZK	97.5
